TARGET UNDER TEST: T1, PUF4 RNA-binding domain (Saccharomyces cerevisiae, UniProt P25339 537-888)
T1 sequence: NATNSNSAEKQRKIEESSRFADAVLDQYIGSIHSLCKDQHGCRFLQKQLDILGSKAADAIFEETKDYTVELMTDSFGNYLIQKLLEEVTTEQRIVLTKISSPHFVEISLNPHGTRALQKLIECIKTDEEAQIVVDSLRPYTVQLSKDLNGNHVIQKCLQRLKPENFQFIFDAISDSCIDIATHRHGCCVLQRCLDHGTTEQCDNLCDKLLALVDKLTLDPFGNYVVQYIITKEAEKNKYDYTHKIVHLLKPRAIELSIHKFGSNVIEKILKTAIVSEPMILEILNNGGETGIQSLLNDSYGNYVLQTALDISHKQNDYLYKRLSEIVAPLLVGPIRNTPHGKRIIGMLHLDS
EXPERIMENT DESCRIPTION: Mg; RNA-MaP; 20 mM Na-HEPES pH 7.4, 30 mM KOAc, 0.75 mM MgCl2, 0.1% Tween-20, 5% glycerol, 0.1 mg/mL BSA, 2 mM DTT; 25 C; 0.0125-409.6 nM protein
COND: tags: N-His6-TEV cleaved; C-SNAP kept, Cy3B-labelled; label: tethered on chip by stalled RNA polymerase
pKd: −log10 of the molar value.
METRIC: pKd

Solved entries:
>  <BINDER>
UCUCUUUAACACUUAUUAUCUCUCUU (ssRNA) [Id_ii_S1_P5E.4_K5.3_C5.2_[C-2T]_[T-1A]_H5.3_A5.1_F5.1_T5.2_[A12C]]

>  <pKd>
< 5.64

$$$$
>  <BINDER>
UCUCUUCCACACUUAUUACUUCUCUU (ssRNA) [Id_ii_S1_P5E.4_K5.3_C5.2_[T-1C]_H5.3_A5.1_F5.1_T5.2_[T11C]_[A12T]]

>  <pKd>
< 5.64

$$$$

Looking for the measured pKd of UCUCUUUCUUUUAUUAUCUCUU (ssRNA) [Ib_S1_P5E.1_K5.1_C5.1_H5.1_[G2C]_[A4T]_A5.1_F5.1_T5.1] , can you help?
< 5.64
